METHOD_DESCRIPTION: Stability of AAs in rat plasma (QC samples, HPLC-MS/MS)
Format: in vitro ADME
SETTINGS: prepared rat plasma samples at room temperature for 24 h; middle QC conc ng/mL: AA I 457.5, AA II 400, AA C 372.5, AA D 460, 7-OH AA I 410; n = 5
Experimental: The QC samples were assayed under several different conditions to evaluate the stability of AAs in rat plasma. The freeze-thaw stability of the analyte was determined over three freeze-thaw cycles. In each freeze-thaw cycle, the samples were frozen and stored at –20 °C for 24 h, then thawed at room temperature. […] Stability was evaluated by comparing the mean concentration of the stored samples with the mean concentration of those prepared freshly. […]
ENDPOINT: Post-preparation stability (RSD/%)
Give the quantity in %, number only.

SMILES_STRUCTURE | QUANTITATIVE_READOUT
COc1cccc2c1cc([N+](=O)[O-])c1c(C(=O)O)cc3c(c12)OCO3 | 2.0
COc1cc(O)cc2c1cc([N+](=O)[O-])c1c(C(=O)O)cc3c(c12)OCO3 | 3.1
O=C(O)c1cc2c(c3c1c([N+](=O)[O-])cc1ccccc13)OCO2 | 3.6

-- ask Note Post-preparation stability (RSD/%) for the compound shown: COc1c(O)ccc2c1cc([N+](=O)[O-])c1c(C(=O)O)cc3c(c12)OCO3
-- reply 4.2

Data provenance: paper PMC5303205
